Data origin, for the record: ChEMBL document CHEMBL5291721

Biological target: UniProt P35348
Sequence (P35348 whole entry): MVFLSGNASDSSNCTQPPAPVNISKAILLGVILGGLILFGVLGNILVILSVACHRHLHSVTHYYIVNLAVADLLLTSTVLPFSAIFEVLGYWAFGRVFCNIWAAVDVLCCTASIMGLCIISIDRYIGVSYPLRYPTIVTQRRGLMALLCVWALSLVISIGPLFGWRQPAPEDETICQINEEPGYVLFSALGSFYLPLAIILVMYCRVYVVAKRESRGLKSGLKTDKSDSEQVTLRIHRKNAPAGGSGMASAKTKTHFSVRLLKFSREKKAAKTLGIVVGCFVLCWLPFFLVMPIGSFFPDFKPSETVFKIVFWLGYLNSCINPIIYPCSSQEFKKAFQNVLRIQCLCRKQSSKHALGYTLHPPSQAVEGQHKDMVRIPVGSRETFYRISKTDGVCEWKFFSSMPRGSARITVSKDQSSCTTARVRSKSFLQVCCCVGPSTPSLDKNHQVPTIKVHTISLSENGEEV
Format: functional, cell-based
Please go through the items and note down their AC50.

| chemicalString | AC50 |
| --- | --- |
| COc1ccc(C(=O)c2ccccc2)c(O)c1 | > 10 µM |
| CC(C)NC[C@H](O)COc1ccc(CCOCC2CC2)cc1 | > 30 µM |
| COc1c(OCCCN2CCOCC2)ccc2c1N=C(NC(=O)c1cnc(N)nc1)N1CCN=C21 | > 30 µM |

Lab note: each compound below needs its AC50 filled in.
1. CN(C)CCN(Cc1ccccc1)c1ccccn1
2. CC(O)(CC(=O)O)CC(=O)O

Outgoing:
["> 30 µM", "18 µM"]
